Source: paper PMC6429502

System: BChE
Format: biochemical
Conditions: 10^−4 M
Entries and their measured % Inhibition BChE follow.
attributeMeasured: % Inhibition BChE (%)

compound	attributeMeasured	unitsSymbol	observedResult
Cn1c(SCC(=O)c2ccc(Br)cc2)nnc1-c1ccc(-c2nc3cc(Cl)ccc3[nH]2)cc1 [3b]	% Inhibition BChE	%	18.42
CCn1c(SCC(=O)c2ccc(Br)cc2)nnc1-c1ccc(-c2nc3cc(F)ccc3[nH]2)cc1 [3n]	% Inhibition BChE	%	18.77
CCn1c(SCC(=O)c2ccc(Br)cc2)nnc1-c1ccc(-c2nc3cc(Cl)ccc3[nH]2)cc1 [3f]	% Inhibition BChE	%	17.88
Cn1c(SCC(=O)c2ccc(O)c(O)c2)nnc1-c1ccc(-c2nc3cc(F)ccc3[nH]2)cc1 [3l]	% Inhibition BChE	%	29.88

====

Recorded measurements of % Inhibition of AChE, one per entry
Target: AChE (Electrophorus electricus)
Assay: AChE inhibition, modified Ellman's method
Format: biochemical
Settings: 10^−9 M

testSmiles	% Inhibition of AChE
Cn1c(SCC(=O)c2ccc(O)c(O)c2)nnc1-c1ccc(-c2nc3cc(Cl)ccc3[nH]2)cc1	15.75 ± 0.48%
Cn1c(SCC(=O)c2ccc(O)c(O)c2)nnc1-c1ccc(-c2nc3cc(F)ccc3[nH]2)cc1	18.77 ± 0.37%
CCn1c(SCC(=O)c2ccc(O)c(O)c2)nnc1-c1ccc(-c2nc3cc(Cl)ccc3[nH]2)cc1	17.20 ± 0.58%
CCn1c(SCC(=O)c2ccc(O)c(O)c2)nnc1-c1ccc(-c2nc3cc(F)ccc3[nH]2)cc1	15.47 ± 0.64%

====

Tested on: BChE
Assay type: biochemical
Settings: 10^−4 M
Reported % Inhibition BChE values follow for various compounds

compound	unitsSymbol	% Inhibition BChE
Cc1ccc(C(=O)CSc2nnc(-c3ccc(-c4nc5cc(Cl)ccc5[nH]4)cc3)n2C)cc1 [3c]	%	20.21
Cn1c(SCC(=O)c2ccc(C#N)cc2)nnc1-c1ccc(-c2nc3cc(Cl)ccc3[nH]2)cc1 [3a]	%	25.13
CCn1c(SCC(=O)c2ccc(C#N)cc2)nnc1-c1ccc(-c2nc3cc(Cl)ccc3[nH]2)cc1 [3e]	%	22.41
Cn1c(SCC(=O)c2ccc(Br)cc2)nnc1-c1ccc(-c2nc3cc(F)ccc3[nH]2)cc1 [3j]	%	21.44

====

Molecular target: UniProt O42275
Test: AChE inhibition, modified Ellman's method
Assay type: biochemical
Settings: 10^−3 M
Hi, to clarify the labels: 1 covers % Inhibition AChE from 50% upward, -1 covers anything below 50%.

compound	categoryLabel
CCn1c(SCC(=O)c2ccc(O)c(O)c2)nnc1-c1ccc(-c2nc3cc(F)ccc3[nH]2)cc1 [3p]	1
Cn1c(SCC(=O)c2ccc(C#N)cc2)nnc1-c1ccc(-c2nc3cc(Cl)ccc3[nH]2)cc1 [3a]	1
CCn1c(SCC(=O)c2ccc(C)cc2)nnc1-c1ccc(-c2nc3cc(Cl)ccc3[nH]2)cc1 [3g]	-1
CCn1c(SCC(=O)c2ccc(Br)cc2)nnc1-c1ccc(-c2nc3cc(Cl)ccc3[nH]2)cc1 [3f]	-1
Cc1ccc(C(=O)CSc2nnc(-c3ccc(-c4nc5cc(Cl)ccc5[nH]4)cc3)n2C)cc1 [3c]	-1
CCn1c(SCC(=O)c2ccc(O)c(O)c2)nnc1-c1ccc(-c2nc3cc(Cl)ccc3[nH]2)cc1 [3h]	1
CCn1c(SCC(=O)c2ccc(C#N)cc2)nnc1-c1ccc(-c2nc3cc(Cl)ccc3[nH]2)cc1 [3e]	1

====

Biological target: AChE (Electrophorus electricus)
Test: AChE inhibition, modified Ellman's method
Type: biochemical
Details: 10^−8 M
// % Inhibition of AChE lookup, one value per entry
attributeMeasured: % Inhibition of AChE (%)

testSmiles	attributeMeasured	unitsSymbol	observedResult
Cn1c(SCC(=O)c2ccc(O)c(O)c2)nnc1-c1ccc(-c2nc3cc(Cl)ccc3[nH]2)cc1	% Inhibition of AChE	%	45.32
CCn1c(SCC(=O)c2ccc(O)c(O)c2)nnc1-c1ccc(-c2nc3cc(F)ccc3[nH]2)cc1	% Inhibition of AChE	%	39.33
CCn1c(SCC(=O)c2ccc(O)c(O)c2)nnc1-c1ccc(-c2nc3cc(Cl)ccc3[nH]2)cc1	% Inhibition of AChE	%	44.28
Cn1c(SCC(=O)c2ccc(O)c(O)c2)nnc1-c1ccc(-c2nc3cc(F)ccc3[nH]2)cc1	% Inhibition of AChE	%	32.29

====

The reader will find IC50 measurements below, all made with AChE (Electrophorus electricus).

testSmiles	IC50
CCn1c(SCC(=O)c2ccc(O)c(O)c2)nnc1-c1ccc(-c2nc3cc(F)ccc3[nH]2)cc1	140 nM
Cn1c(SCC(=O)c2ccc(O)c(O)c2)nnc1-c1ccc(-c2nc3cc(F)ccc3[nH]2)cc1	169 nM

====

Biological target: AChE (Electrophorus electricus)
Assay: AChE inhibition, modified Ellman's method
Assay type: biochemical
Conditions: 10^−5 M
Measured % Inhibition of AChE accompanies every entry in the list below.
attributeMeasured: % Inhibition of AChE (%)

testSmiles	observedResult
Cn1c(SCC(=O)c2ccc(O)c(O)c2)nnc1-c1ccc(-c2nc3cc(Cl)ccc3[nH]2)cc1	87.26
Cn1c(SCC(=O)c2ccc(O)c(O)c2)nnc1-c1ccc(-c2nc3cc(F)ccc3[nH]2)cc1	73.18
CCn1c(SCC(=O)c2ccc(O)c(O)c2)nnc1-c1ccc(-c2nc3cc(Cl)ccc3[nH]2)cc1	90.23
CCn1c(SCC(=O)c2ccc(O)c(O)c2)nnc1-c1ccc(-c2nc3cc(F)ccc3[nH]2)cc1	77.48

====

Molecular target: AChE (Electrophorus electricus, UniProt O42275)
Sequence (O42275 24-633): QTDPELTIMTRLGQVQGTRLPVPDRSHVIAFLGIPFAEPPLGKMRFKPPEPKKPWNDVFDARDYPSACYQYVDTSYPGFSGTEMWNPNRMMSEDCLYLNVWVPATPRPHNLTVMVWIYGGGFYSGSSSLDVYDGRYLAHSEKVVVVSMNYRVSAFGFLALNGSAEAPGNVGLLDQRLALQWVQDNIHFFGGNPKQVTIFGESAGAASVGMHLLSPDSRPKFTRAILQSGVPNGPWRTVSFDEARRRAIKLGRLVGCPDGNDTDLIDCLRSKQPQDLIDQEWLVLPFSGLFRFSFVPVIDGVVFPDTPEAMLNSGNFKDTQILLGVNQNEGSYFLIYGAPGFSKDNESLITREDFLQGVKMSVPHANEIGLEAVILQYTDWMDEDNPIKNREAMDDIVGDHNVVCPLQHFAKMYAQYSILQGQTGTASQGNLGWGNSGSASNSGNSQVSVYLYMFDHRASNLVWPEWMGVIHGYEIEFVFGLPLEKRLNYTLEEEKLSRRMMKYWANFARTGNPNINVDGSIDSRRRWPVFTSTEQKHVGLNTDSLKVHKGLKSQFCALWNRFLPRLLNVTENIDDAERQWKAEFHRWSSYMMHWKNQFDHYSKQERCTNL
Experiment: AChE inhibition, modified Ellman's method
Assay type: biochemical
Conditions: 10^−6 M
Reported % Inhibition of AChE values for the following compounds.
attributeMeasured: % Inhibition of AChE

testSmiles	system	observedResult
Cn1c(SCC(=O)c2ccc(O)c(O)c2)nnc1-c1ccc(-c2nc3cc(Cl)ccc3[nH]2)cc1	AChE (Electrophorus electricus, UniProt O42275)	78.85 ± 1.19%
Cn1c(SCC(=O)c2ccc(O)c(O)c2)nnc1-c1ccc(-c2nc3cc(F)ccc3[nH]2)cc1	AChE (Electrophorus electricus, UniProt O42275)	68.20 ± 0.97%
CCn1c(SCC(=O)c2ccc(O)c(O)c2)nnc1-c1ccc(-c2nc3cc(Cl)ccc3[nH]2)cc1	AChE (Electrophorus electricus, UniProt O42275)	81.25 ± 1.08%
CCn1c(SCC(=O)c2ccc(O)c(O)c2)nnc1-c1ccc(-c2nc3cc(F)ccc3[nH]2)cc1	AChE (Electrophorus electricus, UniProt O42275)	71.62 ± 1.08%

====

Recorded measurements of % Inhibition BChE, one per entry
Tested on: BChE
Assay type: biochemical
Conditions: 10^−4 M
Description: New benzimidazole-triazole derivatives were designed, synthesized, and evaluated for their potential to inhibit AChE and BChE. First, all the synthesized compounds were tested at 10^−3 M and 10^−4 M concentrations. The inhibitory activities of the compounds against AChE and BChE were determined in 96-well plates by modified Ellman’s method as defined in our previous studies. […] Inhibition potencies of synthesized compounds and IC50 of selected derivatives were calculated as reported previously.

testSmiles	unitsSymbol	% Inhibition BChE
Cn1c(SCC(=O)c2ccc(O)c(O)c2)nnc1-c1ccc(-c2nc3cc(Cl)ccc3[nH]2)cc1	%	38.12
Cn1c(SCC(=O)c2ccc(C#N)cc2)nnc1-c1ccc(-c2nc3cc(F)ccc3[nH]2)cc1	%	18.49
CCn1c(SCC(=O)c2ccc(C)cc2)nnc1-c1ccc(-c2nc3cc(F)ccc3[nH]2)cc1	%	20.08
CCn1c(SCC(=O)c2ccc(C)cc2)nnc1-c1ccc(-c2nc3cc(Cl)ccc3[nH]2)cc1	%	24.75

====

# maps each entry to its % Inhibition BChE
System: BChE
Type: biochemical
Conditions: 10^−4 M
attributeMeasured: % Inhibition BChE (%)

molecule	system	unitsSymbol	observedResult
Cc1ccc(C(=O)CSc2nnc(-c3ccc(-c4nc5cc(F)ccc5[nH]4)cc3)n2C)cc1 [3k]	BChE	%	21.16
CCn1c(SCC(=O)c2ccc(O)c(O)c2)nnc1-c1ccc(-c2nc3cc(F)ccc3[nH]2)cc1 [3p]	BChE	%	31.44
CCn1c(SCC(=O)c2ccc(C#N)cc2)nnc1-c1ccc(-c2nc3cc(F)ccc3[nH]2)cc1 [3m]	BChE	%	20.66
CCn1c(SCC(=O)c2ccc(O)c(O)c2)nnc1-c1ccc(-c2nc3cc(Cl)ccc3[nH]2)cc1 [3h]	BChE	%	35.20

====

Target: AChE (Electrophorus electricus, UniProt O42275)
Assay: AChE inhibition, modified Ellman's method
Type: biochemical
Settings: 10^−3 M

testSmiles	unitsSymbol	% Inhibition AChE
CCn1c(SCC(=O)c2ccc(C)cc2)nnc1-c1ccc(-c2nc3cc(F)ccc3[nH]2)cc1	%	28.06
Cn1c(SCC(=O)c2ccc(C#N)cc2)nnc1-c1ccc(-c2nc3cc(F)ccc3[nH]2)cc1	%	61.22
Cn1c(SCC(=O)c2ccc(O)c(O)c2)nnc1-c1ccc(-c2nc3cc(F)ccc3[nH]2)cc1	%	94.58
CCn1c(SCC(=O)c2ccc(Br)cc2)nnc1-c1ccc(-c2nc3cc(F)ccc3[nH]2)cc1	%	49.27
Cn1c(SCC(=O)c2ccc(O)c(O)c2)nnc1-c1ccc(-c2nc3cc(Cl)ccc3[nH]2)cc1	%	98.55
CCn1c(SCC(=O)c2ccc(C#N)cc2)nnc1-c1ccc(-c2nc3cc(F)ccc3[nH]2)cc1	%	59.03
Cc1ccc(C(=O)CSc2nnc(-c3ccc(-c4nc5cc(F)ccc5[nH]4)cc3)n2C)cc1	%	42.29
Cn1c(SCC(=O)c2ccc(Br)cc2)nnc1-c1ccc(-c2nc3cc(Cl)ccc3[nH]2)cc1	%	44.20
